Measured values drawn from PubChem BioAssay for this set.

# protocolNotes: serotonin-gated TRPC4 signal block – cell-based, second counter screen, HEK293 TRPC4/5HT1a, Fluo-4, counter-screen for TRPC4 inhibitor project, confirmation (AID 434978)
# testParameters: Fluo-4 calcium flux, at 10 µM, serotonin added to trigger calcium flux
Active and inactive are the calls of the source.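 The calls were made as follows: active = primary screen active whose calcium signal fell more than 3 SD beyond the full-serotonin control mean in both duplicate plates; inactive = the rest.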
Result category, one only: YES = active, NO = inactive

compound=COc1ccc(Cl)cc1C(=O)Nc1ccccc1N1CCN(C)CC1 categorylabel=NO
compound="CCOC(=O)C1(Cc2ccccc2C)CCCN(Cc2ccc(NC(C)=O)cc2)C1 (stereo not drawn)" categorylabel=NO
compound="CCCN(C(=O)COC(=O)C12CCC(=O)N1c1ccccc1S2)c1c(N)n(Cc2ccccc2)c(=O)[nH]c1=O (stereo not drawn)" categorylabel=NO

Data request: Lab log entry: "N#Cc1c(N)sc2c1CCCCCC2" — outcome as called in the assay?
Data returned: YES

Data request: Lab log entry: "c1ccc(-c2nc(N3CCNCC3)nc3ccccc23)cc1" — outcome as called in the assay?
Data returned: NO

Data request: Lab log entry: "O=[N+]([O-])c1cccc(-c2nnc(C3CC3)o2)c1" — outcome as called in the assay?
Data returned: NO

----------
# testSystem: Short transient receptor potential channel 4 (Mus musculus) (UniProt Q9QUQ5)
# protocolNotes: calcium flux activators in TRPC4/5HT1a cells, counter-screen for TRPC4 activator project, cell-based, second counter screen, HEK293 TRPC4/5HT1a, Fluo-4 (AID 434977)
# testParameters: Fluo-4 calcium flux, at 10 µM
The source made the active and inactive calls.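 The calls were made as follows: active = calcium signal rise above buffer-control mean plus 5 SD in both duplicates, and also a hit in the primary screen; inactive = the rest.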
Result category, one only: yes (1) for active, no (0) for inactive

molecule=CCCCN(CC)CCNC(=O)c1cc2c(=O)n(C)c3ccccc3c2s1 categorylabel="no (0)"
molecule=Cc1ccc(/C=C/C(=O)NC2CCCCCCC2)o1 categorylabel="no (0)"
molecule="CCOC(=O)C1=NNC(C(=O)c2ccc(Cl)cc2)C1c1ccc(OC)cc1 (configuration not stated)" categorylabel="no (0)"

Data request: Lab log entry: "O=C(Nc1ccc(Cl)c(Cl)c1)N(CCCN1CCOCC1)Cc1cccs1" — outcome as called in the assay?
Data returned: no (0)

Data request: Lab log entry: "C/C(=N\N1CCN(C)CC1)c1ccc(Cl)c(Cl)c1" — outcome as called in the assay?
Data returned: no (0)

Data request: Lab log entry: "COc1ccccc1-c1cc(-c2ccccc2)nc(=O)[nH]1" — outcome as called in the assay?
Data returned: no (0)

Data request: Lab log entry: COc1ccc(C(CNc2nc(-c3cccnc3)nc3ccccc23)N(C)C)cc1 (configuration not stated) — outcome as called in the assay?
Data returned: yes (1)

----------
# protocolNotes: serotonin-gated TRPC4 signal block – cell-based, second counter screen, HEK293 TRPC4/5HT1a, Fluo-4, counter-screen for TRPC4 inhibitor project, confirmation (AID 434978)
# testParameters: Fluo-4 calcium flux, at 10 µM, serotonin added to trigger calcium flux; active compounds read high
Activity calls are given as the source filed them.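 Rule for the calls: active = primary screen active whose calcium signal fell more than 3 SD beyond the full-serotonin control mean in both duplicate plates; inactive = the rest.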
measuredQuantity: inhibition

Consider the reported inhibition for these compounds:
compound=CCOc1ccc(N=CNc2ccc(OCC)cc2)cc1 measuredquantity=inhibition recordedresult=inactive
compound=Cc1cccc2nc(CSc3ccc(Cl)cc3)cn12 measuredquantity=inhibition recordedresult="21.9% (active)"
compound=O=[N+]([O-])c1ccc(N2CCN(CCOc3nonc3-c3ccccc3)CC2)c(Cl)c1 measuredquantity=inhibition recordedresult=inactive
compound=N=c1n(CCO)c2ccccc2n1Cc1ccc(Cl)cc1 measuredquantity=inhibition recordedresult="11.9% (active)"
compound="COc1ccccc1N(C(=O)c1snc(C(N)=O)c1N)C(C(=O)NC1CCCC1)c1ccc2ncccc2c1 (stereo not drawn)" measuredquantity=inhibition recordedresult="40.6% (active)"
compound=c1coc(CN=C2NC(=NCc3ccco3)c3ccccc32)c1 measuredquantity=inhibition recordedresult="35.3% (active)"

Data request: Name the recorded inhibition for "O=C(c1coc2ccc(O)c(CN3CCOCC3)c12)C1CC1" .
Data returned: inactive

Data request: Name the recorded inhibition for COc1ccc(CN(C2CCCCC2C)S(=O)(=O)c2ccc(S(=O)(=O)N(C)C)cc2)cc1OC (stereo not drawn) .
Data returned: inactive

Data request: Name the recorded inhibition for "Cc1ccc2nc(C)c3c(c2c1)N(c1ccc(F)cc1)CC3" .
Data returned: 33.8% (active)

Data request: Name the recorded inhibition for "Oc1ccccc1Nc1nc(NCc2ccco2)c2ccccc2n1" .
Data returned: 39.1% (active)

Data request: Name the recorded inhibition for "O=C(c1ccccc1F)N1CCN(c2ccc([N+](=O)[O-])c3cccnc23)CC1" .
Data returned: inactive

Data request: Name the recorded inhibition for "CCOP(=O)(OCC)c1nc(-c2ccc(Cl)cc2Cl)oc1N1CCCCC1" .
Data returned: inactive

Data request: Name the recorded inhibition for CC(=O)OCC1O[C@@H](O[C@@H]2C[C@H]3C(C)(C)[C@H](OC(C)=O)CC[C@]3(C)[C@H]3CC[C@]45C[C@]4(CC[C@H]5[C@@H](C)C[C@@H](O)[C@H](O)C(C)(C)O)[C@@]32C)[C@H](O)[C@@H](O)[C@@H]1O (stereo partly drawn) .
Data returned: inactive

Data request: Name the recorded inhibition for "CCOC(=O)C1(CC2CC2)CCN(Cc2cnc(-c3ccccc3C)nc2)CC1" .
Data returned: inactive

----------
# Tested on: TRPC4 beta (transient receptor potential cation channel C4), mouse
# protocolNotes: TRPC4 cation channel opening, retest – cell-based, Fluo4 calcium, HEK293 TRPC4beta/mu-opioid, duplicates, 10 µM, confirmation (AID 2426)
# testParameters: Fluo4 calcium fluorescence, at 10 µM
The source made the active and inactive calls.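 The calls were made as follows: active = fluorescence ratio normalized to control raised more than 50% in primary screen plus both repeat runs; inactive = the rest.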
Result category, one only: active, inactive

molecule=CC(C)c1c(O)nc(SCCN(C)C)[nH]c1=O categorylabel=inactive
molecule=Cc1cccc(-n2ccnc2CN2CCC(CO)(Cc3ccccc3)CC2)c1 categorylabel=inactive
molecule="COc1ccc(C2CC(c3ccccc3)Nc3nc(NC(=O)c4cccs4)nn32)cc1 (stereo not given)" categorylabel=inactive
molecule=CCOc1ccccc1N(CC)C(=O)c1nn(C)c2c1CSc1ccccc1-2 categorylabel=inactive

Data request: Lab log entry: "CCCN(CCC)CCCNC(=O)c1cc2c(-c3ccc(OC)c(OC)c3)nn(C)c2s1" — outcome as called in the assay?
Data returned: active

----------
# Tested on: TRPC4 (mouse), co-expressed with 5HT1a in HEK293
# protocolNotes: enhancement of serotonin-evoked TRPC4 response – cell-based, second counter screen, HEK293 TRPC4/5HT1a, Fluo-4, counter-screen for TRPC4 potentiator project, confirmation (AID 434979)
# testParameters: Fluo-4 calcium flux, at 10 µM, serotonin added at its EC20 dose
The source made the active and inactive calls.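 How the source made its calls: active means signal rise over 3 SD above mean of control wells given weak agonist, in both repeats and first screen; inactive means the rest.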
Result category, one only: T = active, F = inactive

Look over these answered cases.
molecule="Cc1sc(NC(=O)C2CCCCC2C(=O)O)c(C(N)=O)c1-c1ccc(C(C)(C)C)cc1 (centres undefined)" categorylabel=F
molecule="COc1ccc(C(CNC(=O)CCOc2ccccc2)N(C)C)cc1 (centres undefined)" categorylabel=F
molecule=COc1ccccc1N1CCc2c(C)nc3c(OC)cccc3c21 categorylabel=F
molecule=CN(C)c1ccc(C(=S)N2CCN(c3ccc([N+](=O)[O-])cc3)CC2)cc1 categorylabel=T
molecule=NCCNC(=O)c1c(NC(=O)c2ccccc2)sc2c1CCCC2 categorylabel=F
molecule=c1ccc(-c2nc(N3CCNCC3)nc3ccccc23)cc1 categorylabel=F
molecule=Oc1c(Br)cc(Br)cc1C=Nc1ccc2[nH]ncc2c1 categorylabel=F
molecule=O=S(=O)(NCCc1csc(-c2ccccc2)n1)c1cccnc1 categorylabel=F

Data request: Lab log entry: "Fc1ccc(CN2CCC(Cc3ccccc3)CC2)cc1F" — outcome as called in the assay?
Data returned: F

Data request: Lab log entry: CC(=O)Nc1cccc(C(=O)OC(C(=O)c2ccc(C)cc2)c2ccccc2)c1 (centres undefined) — outcome as called in the assay?
Data returned: T

Data request: Lab log entry: Cc1ccc(/C=C2\SC(=S)N(C(Cc3ccccc3)C(=O)O)C2=O)cc1 (centres undefined) — outcome as called in the assay?
Data returned: F

Data request: Lab log entry: "Cc1cc(-c2sccc2C)nc(-n2cccc2)n1" — outcome as called in the assay?
Data returned: F

Data request: Lab log entry: CCOc1c(Cl)cc(CNCC(O)c2ccccc2)cc1OC (centres undefined) — outcome as called in the assay?
Data returned: F

----------
# testSystem: Short transient receptor potential channel 6 (Mus musculus) (UniProt Q61143)
# Sequence (Q61143 whole entry, looked up): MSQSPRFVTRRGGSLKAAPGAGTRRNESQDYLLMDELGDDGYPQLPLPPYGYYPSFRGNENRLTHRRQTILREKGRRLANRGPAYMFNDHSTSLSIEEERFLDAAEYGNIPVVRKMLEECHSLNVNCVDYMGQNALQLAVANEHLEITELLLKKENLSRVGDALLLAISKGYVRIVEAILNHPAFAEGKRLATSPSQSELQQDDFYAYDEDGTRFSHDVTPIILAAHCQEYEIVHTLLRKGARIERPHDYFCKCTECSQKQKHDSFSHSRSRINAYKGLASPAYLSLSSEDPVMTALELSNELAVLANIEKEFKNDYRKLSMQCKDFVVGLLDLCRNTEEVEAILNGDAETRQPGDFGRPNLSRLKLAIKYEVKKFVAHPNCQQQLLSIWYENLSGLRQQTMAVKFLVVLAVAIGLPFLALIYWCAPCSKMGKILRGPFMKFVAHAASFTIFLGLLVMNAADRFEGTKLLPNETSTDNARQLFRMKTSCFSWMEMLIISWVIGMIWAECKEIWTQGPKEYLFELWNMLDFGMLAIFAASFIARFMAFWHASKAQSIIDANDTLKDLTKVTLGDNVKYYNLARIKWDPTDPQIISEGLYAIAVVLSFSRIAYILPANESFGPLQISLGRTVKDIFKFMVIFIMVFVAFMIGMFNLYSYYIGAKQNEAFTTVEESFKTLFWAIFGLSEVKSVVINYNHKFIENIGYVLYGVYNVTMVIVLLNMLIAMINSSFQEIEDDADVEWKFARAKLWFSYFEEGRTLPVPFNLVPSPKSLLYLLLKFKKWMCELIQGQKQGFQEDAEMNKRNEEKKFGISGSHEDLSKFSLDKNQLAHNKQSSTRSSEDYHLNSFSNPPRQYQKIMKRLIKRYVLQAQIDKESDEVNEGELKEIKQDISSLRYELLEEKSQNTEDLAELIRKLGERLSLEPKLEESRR
# protocolNotes: positive modulators of mouse TRPC6 channel – HEK293 cells, membrane potential dye, duplicate, selectivity assay for TRPC4 potentiator project, confirmation (AID 434952)
# testParameters: HEK293 TRPC6, membrane potential dye fluorescence, at 10 µM, maximal acetylcholine added after compound
The source made the active and inactive calls.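 The calls were made as follows: active = compound raising the membrane signal above positive-control mean plus 3 SD in both repeats, and a primary screen hit; inactive = the rest.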
Result category, one only: active, inactive

Look over these answered cases.
compound="CCOc1ccccc1CN1CCN(Cc2cccc3nonc23)CC1CCO (configuration not stated)" categorylabel=inactive
compound="Cc1ccc(NC(=O)C2CCC(CNC(=O)[C@@H]3Cc4ccccc4CN3)CC2)cc1 (some centres not stated)" categorylabel=inactive
compound=NC(=O)NCCN1CCN(c2ncc(C(F)(F)F)cc2Cl)CC1 categorylabel=inactive

Data request: Lab log entry: "Cc1ccc(C(=O)NC(=S)Nc2c(C)ccc3nsnc23)cc1" — outcome as called in the assay?
Data returned: inactive

Data request: Lab log entry: "Clc1cc(/C=N\NC2=NCCN2)cc(Cl)n1" — outcome as called in the assay?
Data returned: inactive

Data request: Lab log entry: "NS(=O)(=O)c1ccc(NN=C2CCN(Cc3ccccc3)CC2)c([N+](=O)[O-])c1" — outcome as called in the assay?
Data returned: inactive

Data request: Lab log entry: CC(C)c1ccc2c(c1)C1Cc3ccccc3C1N2 (configuration not stated) — outcome as called in the assay?
Data returned: inactive

Data request: Lab log entry: Cc1nc2ccccc2n1CC(O)COc1ccccc1Cl (configuration not stated) — outcome as called in the assay?
Data returned: inactive
